Assignment: determine reported protein stability index for the given variants.
B1: CDC14A (parent)
chain: LWVQGDIFRSKLKNRPSSEGSINK

- Variants of: B1
- testProtocol: protein stability index of a GFP-peptide fusion (GPS, HEK-293T) (PSI 1-6); higher = more stable;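 further: lentivirally expressed fusions sorted by FACS into six bins by GFP to DsRed ratio, PSI derived from sequencing read proportions per bin multiplied by bin number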
- conditionContext: c terminus: a fixed tail appended

Dear colleague, please send me the reported protein stability index for LWRQGDIFRSKLKNRPSSEGSINK when you can.
3.34

Dear colleague, please send me the reported protein stability index for LWEQGDIFRSKLKNRPSSEGSINK when you can.
4.85

Dear colleague, please send me the reported protein stability index for LWVQIDIFRSKLKNRPSSEGSINK when you can.
2.35

Dear colleague, please send me the reported protein stability index for QWVQGDIFRSKLKNRPSSEGSINK when you can.
2.79

Dear colleague, please send me the reported protein stability index for LWVQGDIFRSKCKNRPSSEGSINK when you can.
3.03

Dear colleague, please send me the reported protein stability index for LWAQGDIFRSKLKNRPSSEGSINK when you can.
3.45

Dear colleague, please send me the reported protein stability index for LWVQGDIFRSKLKNRTSSEGSINK when you can.
2.6

Dear colleague, please send me the reported protein stability index for LWVQDDIFRSKLKNRPSSEGSINK when you can.
3.21

Dear colleague, please send me the reported protein stability index for LWVQGWIFRSKLKNRPSSEGSINK when you can.
1.37

Dear colleague, please send me the reported protein stability index for LWVQGIIFRSKLKNRPSSEGSINK when you can.
2.69

Dear colleague, please send me the reported protein stability index for LWVQGDIFRSKLKNRPSSDGSINK when you can.
2.88

Dear colleague, please send me the reported protein stability index for LWVQGDIFRSKLKNRPCSEGSINK when you can.
2.89

Dear colleague, please send me the reported protein stability index for LWVQGDIFRSKLKNRPASEGSINK when you can.
3.12

Dear colleague, please send me the reported protein stability index for LWVQGDIFRSKLKNRPSSERSINK when you can.
2.76

Dear colleague, please send me the reported protein stability index for LWVQGDIFRSKLKNRPSSETSINK when you can.
2.85

Dear colleague, please send me the reported protein stability index for LWDQGDIFRSKLKNRPSSEGSINK when you can.
3.58

Dear colleague, please send me the reported protein stability index for LWVQGDIFRSKLKNRPSIEGSINK when you can.
1.84

Dear colleague, please send me the reported protein stability index for LWVQGDIFRSKEKNRPSSEGSINK when you can.
3.51

Dear colleague, please send me the reported protein stability index for LWVQGDIFRSKLKNRPTSEGSINK when you can.
2.82

Dear colleague, please send me the reported protein stability index for LWVQGDIFRSKLKNRPFSEGSINK when you can.
1.66

Dear colleague, please send me the reported protein stability index for LWCQGDIFRSKLKNRPSSEGSINK when you can.
2.94

Dear colleague, please send me the reported protein stability index for LHVQGDIFRSKLKNRPSSEGSINK when you can.
3.81

Dear colleague, please send me the reported protein stability index for LWVQGDIFRSKWKNRPSSEGSINK when you can.
2.42

Dear colleague, please send me the reported protein stability index for LWVQGDIFRSKLKNRPSSEGYINK when you can.
2.22

Dear colleague, please send me the reported protein stability index for LWVQGDCFRSKLKNRPSSEGSINK when you can.
3.09

Dear colleague, please send me the reported protein stability index for LWVQGDIFRSKLKNRPSSQGSINK when you can.
2.49

Dear colleague, please send me the reported protein stability index for LWVQGDIFRSKLKNRPSSEGSQNK when you can.
2.71

Dear colleague, please send me the reported protein stability index for LWVQGDIFRSKLKNRPSSEGQINK when you can.
3.15

Dear colleague, please send me the reported protein stability index for LWVQGDIFRSKLKNRPDSEGSINK when you can.
2.85
